Where these numbers come from: ChEMBL document CHEMBL3098042

- method-description: Growth inhibition of human OVCAR5 cells at 10^-5 M relative to control
- Format: functional
- reported-conditions: OVCAR-5, values are per cent of control
Parameter growth, % of control at 10 µM: see the listing below.
Give the quantity in %, number only.

The cases that follow already have their growth, % of control at 10 µM on record.
molecule	growth, % of control at 10 µM [%]
CN(C)c1ncnc2c1ncn2[C@H]1C[C@H]2[C@H](CO)[C@@H]1C[C@@H]2Cl	90.3
OC[C@H]1[C@@H]2C[C@H](n3cnc4c(NC5CCCC5)ncnc43)[C@H]1C[C@@H]2Cl	98.8
OC[C@H]1[C@@H]2C[C@H](n3cnc4c(N5CCOCC5)ncnc43)[C@H]1C[C@@H]2Cl	93
CCN(CC)CCCNc1ncnc2c1ncn2[C@H]1C[C@H]2[C@H](CO)[C@@H]1C[C@@H]2Cl	99.7
Nc1ncnc2c1ncn2[C@H]1C[C@H]2[C@H](CO)[C@@H]1C[C@@H]2Cl	90.1
OC[C@H]1[C@@H]2C[C@H](n3cnc4c(NCCc5ccccc5)ncnc43)[C@H]1C[C@@H]2Cl	104
CN(C)c1ncnc2c1ncn2[C@H]1C[C@@H]2C=C[C@H]1[C@H]2CO	96.5
OC[C@H]1[C@@H]2C[C@H](n3cnc4c(NC5CC5)ncnc43)[C@H]1C[C@@H]2Cl	95

Here is the next item to consider.
query: Fill blank: measured growth, % of control at 10 µM of the molecule CN1CCN(c2ncnc3c2ncn3[C@H]2C[C@H]3[C@H](CO)[C@@H]2C[C@@H]3Cl)CC1 is ____.
result: 96.4

###

Below is a list of entries, each paired with its recorded growth, % of control at 10 µM value.
- Test system: HL-60(TB)
- method-description: Growth inhibition of human HL-60(TB) cells at 10^-5 M relative to control
- Assay type: functional
- reported-conditions: values are per cent of control
Write the value in % as a bare number.

These solved cases illustrate the format of a correct answer.
molecule	growth, % of control at 10 µM, %
OC[C@H]1[C@@H]2C[C@H](n3cnc4c(N5CCOCC5)ncnc43)[C@H]1C[C@@H]2Cl	91.9
CN1CCN(c2ncnc3c2ncn3[C@H]2C[C@H]3[C@H](CO)[C@@H]2C[C@@H]3Cl)CC1	86
CCN(CC)CCCNc1ncnc2c1ncn2[C@H]1C[C@H]2[C@H](CO)[C@@H]1C[C@@H]2Cl	90.5
CN(C)c1ncnc2c1ncn2[C@H]1C[C@@H]2C=C[C@H]1[C@H]2CO	88.8
OC[C@H]1[C@@H]2C[C@H](n3cnc4c(NC5CC5)ncnc43)[C@H]1C[C@@H]2Cl	89

query: I have this compound here, OC[C@H]1[C@@H]2C[C@H](n3cnc4c(NCCc5ccccc5)ncnc43)[C@H]1C[C@@H]2Cl , and I need its recorded growth, % of control at 10 µM.
result: 120

query: So what does the record say about growth, % of control at 10 µM for CN(C)c1ncnc2c1ncn2[C@H]1C[C@H]2[C@H](CO)[C@@H]1C[C@@H]2Cl ?
result: 98.2

query: Please report the recorded growth, % of control at 10 µM for OC[C@H]1[C@@H]2C[C@H](n3cnc4c(NC5CCCC5)ncnc43)[C@H]1C[C@@H]2Cl .
result: 118

query: Can you look up the measured growth, % of control at 10 µM of Nc1ncnc2c1ncn2[C@H]1C[C@H]2[C@H](CO)[C@@H]1C[C@@H]2Cl for me?
result: 95.8

###

- Tested on: NCI-H226
- method-description: Growth of human NCI-H226 cells at 10^-5 M relative to control
attribute-measured: growth, % of control at 10 µM (%)
Write down the numeric answer in % and omit the unit.

Some entries whose results are on file:
molecule	growth, % of control at 10 µM / %
CN(C)c1ncnc2c1ncn2[C@H]1C[C@@H]2C=C[C@H]1[C@H]2CO	109
OC[C@H]1[C@@H]2C[C@H](n3cnc4c(N5CCOCC5)ncnc43)[C@H]1C[C@@H]2Cl	108
CN1CCN(c2ncnc3c2ncn3[C@H]2C[C@H]3[C@H](CO)[C@@H]2C[C@@H]3Cl)CC1	102
Nc1ncnc2c1ncn2[C@H]1C[C@H]2[C@H](CO)[C@@H]1C[C@@H]2Cl	110
CN(C)c1ncnc2c1ncn2[C@H]1C[C@H]2[C@H](CO)[C@@H]1C[C@@H]2Cl	101

query: Return reported growth, % of control at 10 µM; argument: OC[C@H]1[C@@H]2C[C@H](n3cnc4c(NC5CC5)ncnc43)[C@H]1C[C@@H]2Cl
result: -27.2

query: Please give the measured growth, % of control at 10 µM for this compound: CCN(CC)CCCNc1ncnc2c1ncn2[C@H]1C[C@H]2[C@H](CO)[C@@H]1C[C@@H]2Cl
result: 105

###

- System: MDA-MB-468
- method-description: Growth inhibition of human MDA-MB-468 cells at 10^-5 M relative to control
- Format: functional
- reported-conditions: values are per cent of control
attribute-measured: growth, % of control at 10 µM (%)
Report only the number, with the unit % understood.

molecule	growth, % of control at 10 µM, %
CCN(CC)CCCNc1ncnc2c1ncn2[C@H]1C[C@H]2[C@H](CO)[C@@H]1C[C@@H]2Cl	101

query: What value of growth, % of control at 10 µM has been reported for the following compound? CN(C)c1ncnc2c1ncn2[C@H]1C[C@@H]2C=C[C@H]1[C@H]2CO
result: 98.2

query: Using the record for OC[C@H]1[C@@H]2C[C@H](n3cnc4c(N5CCOCC5)ncnc43)[C@H]1C[C@@H]2Cl , report its growth, % of control at 10 µM.
result: 110

query: Name the recorded growth, % of control at 10 µM for Nc1ncnc2c1ncn2[C@H]1C[C@H]2[C@H](CO)[C@@H]1C[C@@H]2Cl .
result: 103

###

- Test system: NCI-H322M
- method-description: Growth inhibition of human NCI-H322M cells at 10^-5 M relative to control
- Assay type: functional
- reported-conditions: values are per cent of control
The following compounds are listed with their measured growth, % of control at 10 µM values.
Express your answer as a number followed by its unit.

molecule	target-desc	result
OC[C@H]1[C@@H]2C[C@H](n3cnc4c(NCCc5ccccc5)ncnc43)[C@H]1C[C@@H]2Cl	NCI-H322M	99.5%

query: // query growth, % of control at 10 µM value for entry CCN(CC)CCCNc1ncnc2c1ncn2[C@H]1C[C@H]2[C@H](CO)[C@@H]1C[C@@H]2Cl
result: 93.2%

query: Can you share its growth, % of control at 10 µM? I mean this compound: CN1CCN(c2ncnc3c2ncn3[C@H]2C[C@H]3[C@H](CO)[C@@H]2C[C@@H]3Cl)CC1
result: 92.7%

query: Which measured growth, % of control at 10 µM value corresponds to CN(C)c1ncnc2c1ncn2[C@H]1C[C@@H]2C=C[C@H]1[C@H]2CO ?
result: 104%

###

Listing of entries alongside the reported growth, % of control at 10 µM.
- Tested on: IGROV-1
- method-description: Growth inhibition of human IGROV1 cells at 10^-5 M relative to control
- Format: functional
- reported-conditions: values are per cent of control
Only the number, expressed in %, is required.

molecule	unit-symbol	growth, % of control at 10 µM
CN(C)c1ncnc2c1ncn2[C@H]1C[C@H]2[C@H](CO)[C@@H]1C[C@@H]2Cl	%	101
OC[C@H]1[C@@H]2C[C@H](n3cnc4c(NC5CC5)ncnc43)[C@H]1C[C@@H]2Cl	%	90.6
CCN(CC)CCCNc1ncnc2c1ncn2[C@H]1C[C@H]2[C@H](CO)[C@@H]1C[C@@H]2Cl	%	112

Consider now this further molecule.
query: Form field: reported growth, % of control at 10 µM of CN(C)c1ncnc2c1ncn2[C@H]1C[C@@H]2C=C[C@H]1[C@H]2CO
result: 98.2

###

- Tested on: IGROV-1
- method-description: Growth inhibition of human IGROV1 cells at 10^-5 M relative to control
- Format: functional
- reported-conditions: values are per cent of control
attribute-measured: growth, % of control at 10 µM (%)
Enter your answer as a number in %; do not include the unit.

query: // map CN1CCN(c2ncnc3c2ncn3[C@H]2C[C@H]3[C@H](CO)[C@@H]2C[C@@H]3Cl)CC1 to recorded growth, % of control at 10 µM (system: IGROV-1)
result: 92.7

query: Record lookup: for IGROV-1, what growth, % of control at 10 µM belongs to Nc1ncnc2c1ncn2[C@H]1C[C@H]2[C@H](CO)[C@@H]1C[C@@H]2Cl ?
result: 103

query: Give growth, % of control at 10 µM (IGROV-1) of the following compound: OC[C@H]1[C@@H]2C[C@H](n3cnc4c(NCCc5ccccc5)ncnc43)[C@H]1C[C@@H]2Cl
result: 105

query: Identify the measured growth, % of control at 10 µM of OC[C@H]1[C@@H]2C[C@H](n3cnc4c(N5CCOCC5)ncnc43)[C@H]1C[C@@H]2Cl for IGROV-1.
result: 92.3
